System: Saccharomyces cerevisiae
assay procedure: protein stability index of tFT-peptide fusion (C-terminal peptide) (PSI (0-1 scale)); higher = more stable (slower turnover)
test settings: genetic background: wild type; temperature: 30 C
// class assignment uses protein stability index with these ranges: bottom end = under 0.6, midrange = from 0.6 up to 0.7, top end = 0.7 and over

[[record]]
entry_sequence = "SPAASPSRPPPI"
qualitative_label = "midrange"

[[record]]
entry_sequence = "GTGSEGVALRSG"
qualitative_label = "midrange"

[[record]]
entry_sequence = "NYMQVSIKNKKE"
qualitative_label = "midrange"

[[record]]
entry_sequence = "IINKRYEFRERT"
qualitative_label = "top end"

[[record]]
entry_sequence = "PYHAPRPPFSLF"
qualitative_label = "bottom end"

[[record]]
entry_sequence = "VWACWCGWVLLM"
qualitative_label = "bottom end"

[[record]]
entry_sequence = "AVQESVSHSLVL"
qualitative_label = "top end"

[[record]]
entry_sequence = "PLAPSSHLHPSP"
qualitative_label = "top end"

[[record]]
entry_sequence = "CFCYSLSINLNL"
qualitative_label = "bottom end"


###

System: Saccharomyces cerevisiae
assay procedure: protein stability index of tFT-peptide fusion (C-terminal peptide) (PSI (0-1 scale)); higher = more stable (slower turnover)
test settings: genetic background: wild type; temperature: 30 C
// class assignment uses protein stability index with these ranges: band A (below 0.6), band B (0.6 to below 0.7), band C (0.7 or more)

[[record]]
entry_sequence = "YVGLNHYCIDAL"
qualitative_label = "band C"

[[record]]
entry_sequence = "GPAPAPPALSSC"
qualitative_label = "band C"

[[record]]
entry_sequence = "ISPGWLSRLWVR"
qualitative_label = "band B"

[[record]]
entry_sequence = "TTKRQKRKKKQR"
qualitative_label = "band B"

[[record]]
entry_sequence = "GAKVALLSFGFA"
qualitative_label = "band B"

[[record]]
entry_sequence = "LRCFLESPRQST"
qualitative_label = "band C"

[[record]]
entry_sequence = "PPPPSRPPSPGP"
qualitative_label = "band B"

[[record]]
entry_sequence = "SSFGSALRPRGV"
qualitative_label = "band B"

[[record]]
entry_sequence = "PPSLPPRPRPPS"
qualitative_label = "band B"

[[record]]
entry_sequence = "LASWVVFIWFLW"
qualitative_label = "band A"

[[record]]
entry_sequence = "FLSWSLPCITFR"
qualitative_label = "band A"

[[record]]
entry_sequence = "RKMTSIINKKTV"
qualitative_label = "band A"

[[record]]
entry_sequence = "APLRSSCVFLFP"
qualitative_label = "band C"

[[record]]
entry_sequence = "VYVLVFNMENIS"
qualitative_label = "band A"

[[record]]
entry_sequence = "SAKQTYFKRVAQ"
qualitative_label = "band B"

[[record]]
entry_sequence = "FLLLDFMLVSLV"
qualitative_label = "band A"


###

Tested on: Saccharomyces cerevisiae;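 also: PSI is a weighted mean of sequencing reads over stability bins, variants kept only with over 10 reads, mCherry proximal and sfGFP distal, peptide attached via GGGS linker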
assay procedure: protein stability index of tFT-peptide fusion (C-terminal peptide) (PSI (0-1 scale)); higher = more stable (slower turnover)
test settings: genetic background: wild type; temperature: 30 C
endpoint name: protein stability index

[[record]]
entry_sequence = "VVAGCLWGEYAT"
target_system = "Saccharomyces cerevisiae"
recorded_value = 0.702

[[record]]
entry_sequence = "RVIIWDRRFLAG"
target_system = "Saccharomyces cerevisiae"
recorded_value = 0.679

[[record]]
entry_sequence = "PAGPPHPCPHPS"
target_system = "Saccharomyces cerevisiae"
recorded_value = 0.708

[[record]]
entry_sequence = "VQASFLPGGSVR"
target_system = "Saccharomyces cerevisiae"
recorded_value = 0.706

[[record]]
entry_sequence = "FPPPSPPPLSPC"
target_system = "Saccharomyces cerevisiae"
recorded_value = 0.689

